target: T1, human ROR1 (full-length, on the cell surface) (human, UniProt Q01973 30-937)
T1 construct: whole, on cells; the tumour cell lines carry their own ROR1; also called Ba/F3-ROR1 cells; Jeko-1
T1 sequence (Q01973 30-937): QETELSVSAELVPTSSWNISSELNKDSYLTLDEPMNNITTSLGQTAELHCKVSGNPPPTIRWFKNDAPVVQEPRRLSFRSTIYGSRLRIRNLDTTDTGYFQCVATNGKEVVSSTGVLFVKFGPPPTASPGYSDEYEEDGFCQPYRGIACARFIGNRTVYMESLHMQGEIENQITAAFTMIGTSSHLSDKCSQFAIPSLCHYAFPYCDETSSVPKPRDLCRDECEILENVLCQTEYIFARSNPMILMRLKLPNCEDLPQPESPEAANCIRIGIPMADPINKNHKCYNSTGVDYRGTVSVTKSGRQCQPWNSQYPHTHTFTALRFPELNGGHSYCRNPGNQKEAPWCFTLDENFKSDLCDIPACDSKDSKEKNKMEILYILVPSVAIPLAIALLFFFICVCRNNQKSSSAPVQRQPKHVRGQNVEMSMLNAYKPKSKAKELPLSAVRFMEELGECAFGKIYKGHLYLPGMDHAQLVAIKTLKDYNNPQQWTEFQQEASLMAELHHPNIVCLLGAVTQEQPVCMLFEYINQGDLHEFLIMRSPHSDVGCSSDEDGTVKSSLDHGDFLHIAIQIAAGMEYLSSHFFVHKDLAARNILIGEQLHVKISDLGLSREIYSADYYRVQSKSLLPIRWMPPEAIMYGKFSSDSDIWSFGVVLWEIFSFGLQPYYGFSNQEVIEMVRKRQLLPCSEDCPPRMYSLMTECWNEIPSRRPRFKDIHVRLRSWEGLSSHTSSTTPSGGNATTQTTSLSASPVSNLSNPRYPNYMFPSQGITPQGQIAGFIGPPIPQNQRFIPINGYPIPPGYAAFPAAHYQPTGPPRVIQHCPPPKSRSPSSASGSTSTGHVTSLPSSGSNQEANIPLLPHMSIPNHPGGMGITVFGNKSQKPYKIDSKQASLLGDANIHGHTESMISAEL
method.notes: flow cytometry, A549 cells
quantity: EC50
# include the unit after the value

INSERT INTO measurements (binder, assay_result) VALUES
  ('3D8-Hu57 (antibody, human IgG1, kappa, V domains shown, humanized, human IgG1 / kappa) VH: EVQLVESGGGLVQPGGSLRLSCAASGFTFSSYAMSWVRQAPGKGLEWVSSINSGGSTYYPDSVKGRFTISRENAKNSLYLQMNSLRAGDTAVYYCARVNYYGYGDYAMDYWGQGTLVTVSS VL: DIQMTQSPSSLSASVGDRVTITCQASQDISNYLSWFQQKPGKSPKTLIYRANRLVTGVPSRFSGSGSGTDYTFTISSLQPEDIATYYCLQYDEFPYTFGGGTKLEIKR', '270 pM');

Attention now shifts to the item below.
Problem: Any idea what its EC50 is? The binder is 19F6-Hu31 (antibody, human IgG1, kappa, V domains shown, humanized, human IgG1 / kappa) VH: QVQLQESGPGLVKPSQTLSLTCTVSGYSITSDYAWNWIRQFPGKGLEWIGYISYSGSIRYNPSLKSRVTISRDTSKNQFSLKLSSVTAADTAVYYCARGEITYYFDYWGQGTLVTVSS VL: DIQMTQSPSSLSASVGDRVTITCITTTDIDDDMNWYQQKPGKAPKLLISEGNTLRPGVPSRFSGSGYGTDFTLTISSLQPEDFATYYCLQSNDLPLTFGQGTKLEIKR
Result: 90 pM
